meta.source: patent US20180162952A1

measurement.target: T1, murine PTK7-His (murine, UniProt Q8BKG3 23-696, limits assumed)
T1 construct: also called mouse PTK7-His; mouse PTK7
T1 sequence (looked up): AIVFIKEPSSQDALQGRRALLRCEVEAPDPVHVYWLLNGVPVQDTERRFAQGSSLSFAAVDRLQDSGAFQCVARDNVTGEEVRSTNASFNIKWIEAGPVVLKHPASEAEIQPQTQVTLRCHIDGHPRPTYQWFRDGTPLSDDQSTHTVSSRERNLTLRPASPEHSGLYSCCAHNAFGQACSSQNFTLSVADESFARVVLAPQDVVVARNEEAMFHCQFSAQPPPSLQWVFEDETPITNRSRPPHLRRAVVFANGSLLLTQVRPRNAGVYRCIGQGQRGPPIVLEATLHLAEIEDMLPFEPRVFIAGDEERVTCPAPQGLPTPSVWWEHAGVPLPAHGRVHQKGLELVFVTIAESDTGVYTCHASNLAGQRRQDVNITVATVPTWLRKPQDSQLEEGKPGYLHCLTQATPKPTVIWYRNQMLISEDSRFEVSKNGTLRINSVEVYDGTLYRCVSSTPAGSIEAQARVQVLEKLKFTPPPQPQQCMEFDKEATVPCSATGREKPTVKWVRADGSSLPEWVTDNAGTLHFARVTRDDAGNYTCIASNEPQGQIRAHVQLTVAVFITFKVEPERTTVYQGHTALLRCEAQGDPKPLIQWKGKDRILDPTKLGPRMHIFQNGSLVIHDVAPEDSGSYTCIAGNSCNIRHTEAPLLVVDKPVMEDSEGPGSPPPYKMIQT
assay.name: ForteBio, concentration series of recombinant monomeric antigen
reported.endpoint: binding result

- SC6.41 (antibody, V domains shown, Murine monoclonal antibody, kappa light chain) VH: EVQLQQSGAESVRSGASVKLSCTASGLNIKDYYMHWVNLRPEQGLEWIGWIDPENGDTEYAPEFQGKATMTADTSSNTAYLQLSSLTSEDTAVYYCNACNYGSAYGYWGQGTTLTVSS VL: DIVLTQATPSVPVTPGESVSISCRSSKSLLHTKGDTYLYWFLQRPGQSPQLLIYRMSNLASGVPDRFSGSGSGTVFTLRISRVEAEDVGVYYCMQHLEYPFTFGSGTKLEIKR: binds
